Molecular target: Rv0792c (HutC, GntR family) (Mycobacterium tuberculosis)
Sequence (O86331 whole entry, looked up): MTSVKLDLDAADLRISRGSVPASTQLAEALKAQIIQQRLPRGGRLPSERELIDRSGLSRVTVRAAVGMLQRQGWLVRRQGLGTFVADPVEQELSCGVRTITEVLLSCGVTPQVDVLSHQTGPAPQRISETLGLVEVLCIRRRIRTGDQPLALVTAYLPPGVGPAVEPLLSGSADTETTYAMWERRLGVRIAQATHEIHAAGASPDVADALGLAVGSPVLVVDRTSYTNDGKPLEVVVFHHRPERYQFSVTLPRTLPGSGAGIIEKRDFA
Assay: ALISA (plate-immobilized protein)
recorded.endpoint: Kd (nM)
Please state the figure in nM; there is no need to write the unit.

Asked: Item under review: TCTAGTCATTCGTCATAATCCCATCTGTTTCTTCCTCCTTCCGT [Rv0792c_2 aptamer (also Rv0729c_2)] . Reported Kd?
Given back: 51
